Reference source: ChEMBL document CHEMBL1145979

species: Mus musculus; test: Inhibition of murine splenocyte proliferation; type: functional
Mark yes (1) only for IC50 values smaller than 10 µM; exact matches and larger values are no (0).

INSERT INTO results (molecule, group_label) VALUES
  ('CCCCCCCCCCC(=O)CC(=O)N[C@H]1CCOC1=O', 'yes (1)'),
  ('CCCCCCCCCC(=O)CC(=O)NC1CCSC1=O (stereo not given)', 'no (0)'),
  ('CCCCCCCCCCCC(=O)N[C@H]1CCOC1=O', 'no (0)'),
  ('CCCCCCCCCCCC(O)CC(=O)N[C@H]1CCOC1=O (stereo not given in full)', 'yes (1)'),
  ('CCCCCC/C=C\CCCC(=O)CC(=O)N[C@H]1CCOC1=O', 'no (0)');

[ask] Dear reviewer, please state whether CCCCCC(C)CCC(=O)CC(=O)N[C@H]1CCOC1=O (stereo not given in full) has IC50 strictly beneath 10 µM.
[reply] yes (1)

[ask] Try the molecule `CCCCCCCCCCC(=O)N[C@H]1CCOC1=O`
[reply] no (0)

[ask] Try the molecule CCCCCCCCCC(O)CC(=O)N[C@H]1CCOC1=O (stereo not given in full)
[reply] no (0)

[ask] Try the molecule `C=CCCCCCCCCC(=O)CC(=O)N[C@H]1CCOC1=O`
[reply] yes (1)

[ask] Try the molecule `CCCCCCCCC(=O)CC(=O)N[C@H]1CCOC1=O`
[reply] yes (1)

---

species on record: Mus musculus; assay: Inhibition of murine splenocyte proliferation; type: functional
Grouping by measured IC50 is done with the following cut points: range A (below 6 µM), range B (6 µM to below 30 µM), range C (30 µM or more)

INSERT INTO measurements (smiles_representation, group_label) VALUES
  ('O=C(CCCCCCCCCCBr)CC(=O)N[C@H]1CCOC1=O', 'range A');

[ask] Which category fits this record: `CCCCCCCCCC(=O)N[C@H]1CCOC1=O`
[reply] range C

[ask] Try the compound `CCCCCC(=O)CC(=O)N[C@H]1CCOC1=O`
[reply] range C

[ask] Try the compound `CCCCCCCCCC(=O)CC(=O)N[C@H]1CCOC1=O`
[reply] range A

[ask] Try the compound `C=CCCCCCCCCCC(=O)CC(=O)N[C@H]1CCOC1=O`
[reply] range B

[ask] Try the compound `CCCCCCCCCC(=O)CC(=O)N[C@@H](CCO)C(=O)OC`
[reply] range C

[ask] Try the compound `CCCCCCCCCCCC(=O)CC(=O)N[C@H]1CCOC1=O`
[reply] range B

[ask] Try the compound `CCCCCCCC(=O)CC(=O)N[C@H]1CCOC1=O`
[reply] range B

[ask] Try the compound `CCC/C=C/CCCCCCC(=O)CC(=O)N[C@H]1CCOC1=O`
[reply] range B

[ask] Try the compound `COC(=O)CCCCCCCCCC(=O)CC(=O)N[C@H]1CCOC1=O`
[reply] range C

[ask] Try the compound `O=C(CCCCCCCCCO)CC(=O)N[C@H]1CCOC1=O`
[reply] range B
